- SYSTEM: recombinant human p38α (Homo sapiens, UniProt Q16539)
- Sequence (Q16539 whole entry): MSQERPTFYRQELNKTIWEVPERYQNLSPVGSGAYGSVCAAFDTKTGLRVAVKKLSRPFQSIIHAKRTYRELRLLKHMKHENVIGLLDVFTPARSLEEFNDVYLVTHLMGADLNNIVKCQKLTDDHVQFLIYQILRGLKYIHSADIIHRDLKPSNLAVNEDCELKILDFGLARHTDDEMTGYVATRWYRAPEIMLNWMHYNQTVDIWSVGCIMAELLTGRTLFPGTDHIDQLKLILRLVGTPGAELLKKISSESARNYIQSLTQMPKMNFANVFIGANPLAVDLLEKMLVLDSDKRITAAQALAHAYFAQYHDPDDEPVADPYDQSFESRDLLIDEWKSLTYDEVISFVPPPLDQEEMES
- TEST_DESCRIPTION: Purified and activated recombinant human p38α HTRF kinase assay
- Assay type: biochemical
- CONDITION_DESCRIPTION: 1 nM p38α, 50 μM ATP, GST-ATF2 substrate, read-out: p38a IC50
ENDPOINT_NAME: pIC50
The value called pIC50 is obtained by taking minus log10 of the concentration in mol/L.

Please review the following examples before continuing.
Cc1ccc(C(=O)NC2CC2)cc1-c1cc2cnn(-c3c(F)cccc3F)c2n(C)c1=S: 8.59
CNC(=O)c1cc(F)c(C)c(-c2cc3cnn(-c4c(F)cccc4F)c3n(C)c2=O)c1: 8.21
Cc1ccc(C(=O)Nc2ccon2)cc1-c1cc2cnn(-c3ccc(F)cc3F)c2n(C)c1=O: 8.62
Cc1c(F)cc(C(=O)NC2CC2)cc1-c1cc2cnn(-c3ccc(F)cc3F)c2n(C)c1=O: 8.59
Cc1ccc(C(=O)Nc2ccon2)cc1-c1cc2cnn(-c3cc(F)ccc3F)c2n(C)c1=O: 8.64

Exercise: Fill in reported pIC50 for this entry: `Cc1ccc(C(=O)Nc2nccs2)cc1-c1cc2cnn(-c3c(F)cccc3F)c2n(C)c1=O`
Solution: 8.96

Exercise: Fill in reported pIC50 for this entry: `Cc1ccc(C(=O)NC2CC2)cc1-c1cc2cnn(-c3cc(F)ccc3F)c2n(C)c1=O`
Solution: 8.21

Exercise: Fill in reported pIC50 for this entry: `Cc1c(F)cc(C(=O)NC2CC2)cc1-c1cc2cnn(-c3c(F)cccc3F)c2n(C)c1=O`
Solution: 8.74
